System: HCT-116 colon
Assay: NCI tumour cell line growth inhibition, 48 h
# TGI per record follows

See these solved cases before continuing.
{"Compound": "COCCN1C2=CCCCC2=Nc2c1nc(N)[nH]c2=O", "Tgt": "HCT-116 colon", "TGI": "> 100 µM"}
{"Compound": "CSCCC(NCc1c(O)ccc2c(-c3ccccc3)cc(=O)oc12)C(=O)O (stereo not given)", "Tgt": "HCT-116 colon", "TGI": "> 100 µM"}
{"Compound": "O=C1NCCCc2nonc21", "Tgt": "HCT-116 colon", "TGI": "> 100 µM"}
{"Compound": "CC(=O)OC[C@]1(C(=O)C(O)c2ccoc2)[C@H](C)CC[C@@]23COC(=O)C2=CCC[C@@H]31 (stereo not given in full)", "Tgt": "HCT-116 colon", "TGI": "> 10 µM"}
{"Compound": "O=C1c2ccccc2-c2c1c1ccccc1c(=O)n2CCCNCCCNCCCn1c2c(c3ccccc3c1=O)C(=O)c1ccccc1-2", "Tgt": "HCT-116 colon", "TGI": "0.476 µM"}
{"Compound": "COc1cccc(NC(=O)CC(=O)N2N=C(N(CCC#N)c3ccc(Cl)cc3)CC2c2ccccc2)c1 (stereo not given)", "Tgt": "HCT-116 colon", "TGI": "> 100 µM"}

[ask] Return TGI for the following compound: CC(=O)N/N=C1/NN(C(C)=O)C2(S1)C(=O)Nc1ccc(Br)cc12 (stereo not given)
[reply] > 100 µM

[ask] Return TGI for the following compound: CC(=O)NC(CCCNCc1ccccc1)C(=O)NCc1ccccc1 (stereo not given)
[reply] > 100 µM

[ask] Return TGI for the following compound: COc1ccc(N[C@H](CSc2ccc(C)cc2)c2ccc(F)cc2)cc1
[reply] > 100 µM

[ask] Return TGI for the following compound: CCCCCCCCCc1cc(=O)c2ccc(OCc3ccccc3)cc2o1
[reply] > 100 µM
